# maps each entry to its koff
TGT: T1, human-CD40 monomer (human, UniProt P25942 21-193, limits assumed)
T1 construct: also called hCD40-monomer; human-CD40-monomer protein
PROTOCOL_SUMMARY: SPR 2 pt screen, Ab on protein A

Worked examples, 2 binders total:
humanized Y1238 hz43 (hz-HC9 / hz-LC3), IgG1.3f (antibody, V domains shown, IgG1.3f heavy constant, common CL; expression supernatant; also called Sup 43) VH: QVQLVQSGAEVVKPGASVKVSCKASGYAFTNYLIEWVRQRPGQGLEWMGVINPGSGGTNYNEKFKGRVTLTADKSSSTAYMQLSRLRSDDTAVYFCARSQLGRRFDYWGQGTTVTVSS VL: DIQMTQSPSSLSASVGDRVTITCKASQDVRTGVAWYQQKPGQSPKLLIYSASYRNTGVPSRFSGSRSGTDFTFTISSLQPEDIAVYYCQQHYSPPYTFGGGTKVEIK :: 0.00029 s⁻¹
humanized Y1238 hz50 (hz-HC10 / hz-LC5), IgG1.3f (antibody, V domains shown, IgG1.3f heavy constant, common CL; expression supernatant; also called Sup 50) VH: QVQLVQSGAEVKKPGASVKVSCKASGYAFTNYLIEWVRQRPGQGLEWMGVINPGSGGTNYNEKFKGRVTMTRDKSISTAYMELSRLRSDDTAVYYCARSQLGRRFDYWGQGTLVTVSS VL: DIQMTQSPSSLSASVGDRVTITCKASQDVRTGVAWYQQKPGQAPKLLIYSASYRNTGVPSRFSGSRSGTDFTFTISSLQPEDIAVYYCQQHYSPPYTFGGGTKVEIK :: 0.00061 s⁻¹

Query string: What does the record list as koff for humanized Y1238 hz8 (hz-HC2 / hz-LC3), IgG1.3f (antibody, V domains shown, IgG1.3f heavy constant, common CL; expression supernatant; also called Sup 8) VH: QVQLVQSGAEVKKPGASVKVSCKASGYAFTNYLIEWVRQAPGQGLEWMGVINPGSGGTNYNEKFKGRVTMTADTSISTAYMELSRLRSDDTAVYYCARSQLGRRFDYWGQGTLVTVSS VL: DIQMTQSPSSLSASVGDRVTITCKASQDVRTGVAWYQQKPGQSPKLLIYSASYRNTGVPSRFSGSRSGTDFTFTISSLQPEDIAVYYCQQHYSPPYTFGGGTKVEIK ?
Result string: 0.00029 s⁻¹

Where do the numbers come from? From patent US20220177596A1.
